Data credit: ChEMBL document CHEMBL3988442

test system: Wolbachia pipientis; experiment: Anti-Wolbachia Cell-Based Screen; format: functional; design: scale not given: in the data most compounds retested in dose-response had high values; settings: 5 µM
In all, about 48,000 compounds went through this assay and about 13,000 (27%) showed an effect of 50% or more. The list shows a part of the results.
Listing of entries alongside the reported Percent Effect.
endpoint_label: Percent Effect (%)

INSERT INTO assay_data (compound, assay_result) VALUES
  ('CN(Cc1ccccc1O)C(=O)NC1CCCN(c2ncccn2)C1 (stereo unspecified)', -16.23),
  ('CC(O)CN(CC(=O)NC1CCCCC1)c1ccccc1 (stereo unspecified)', -11.54),
  ('O=C(NCc1ccc2c(c1)OCO2)N1CCCC2(C1)OCCO2', 2.082),
  ('CC(NC(=O)NCc1cccs1)c1ccc2c(c1)CCC(=O)N2 (stereo unspecified)', 122.7),
  ('COc1ccc(C2CC(=O)NCc3nc(N(C)C)sc32)c(O)c1 (stereo unspecified)', -25.68),
  ('O=C(O)C(F)(F)F.O=C(O)C(F)(F)F.O=C1[C@@H]2CCN(C3CCOCC3)C[C@@H]2OCCN1Cc1cccnc1', 1.497),
  ('O=S(=O)(NCCC(O)c1cccs1)c1ccccc1 (stereo unspecified)', 2.573),
  ('Cc1cccc(S(=O)(=O)N2Cc3c(CN(C)C)nn(C)c3C2)c1', -7.774),
  ('CC(NC(=O)NCc1ccccn1)c1ccc2c(c1)CCC(=O)N2 (stereo unspecified)', 101),
  ('Cc1csc(CNC(=O)NCC(O)c2ccc(F)cc2)n1 (stereo unspecified)', 8.268),
  ('O=C(O)C(F)(F)F.O=C1[C@H]2CN(S(=O)(=O)c3ccccc3)C[C@H]2CN1Cc1cccnc1', 108.5);
